Entries annotated with measured percentage of parent peptide remaining intact
- Set-up: species or system Swiss albino mice
- Test Settings: mouse, in vivo, 5 min
Non-standard residues stand in square brackets, D forms with d. Residues, ends and D or L forms follow the SMILES beside them. *: point of attachment. DOTA = O=C(O)CN1CCN(CC(=O)O)CCN(CC(=O)*)CCN(CC(=O)O)CC1; Tle = CC(C)(C)[C@H](N)C(=O)O; Nle = CCCC[C@H](N)C(=O)O; X1 = NCCNCC(CNCCN)C(=O)*; Dab = NCC[C@H](N)C(=O)O; AEEA = NCCOCCOCC(=O)O; βAla = NCCC(=O)O; For = O=C*
Measurement Name: percentage of parent peptide remaining intact

Compound: CSCC[C@H](NC(=O)[C@H](CC(C)C)NC(=O)[C@H](Cc1c[nH]cn1)NC(=O)CNC(=O)[C@@H](NC(=O)[C@H](C)NC(=O)[C@H](Cc1c[nH]c2ccccc12)NC(=O)[C@H](Cc1c[nH]cn1)NC(=O)[C@H](CC(N)=O)NC(=O)CNC(=O)C(CNCCN)CNCCN)C(C)C)C(N)=O [[^99mTc]SAR-NC1, metal not drawn]
Result: 30%
//
Compound: CCCC[C@H](NC(=O)[C@H](Cc1ccccc1)NC(=O)[C@H](Cc1c[nH]cn1)NC(=O)CCNC(=O)[C@@H](NC(=O)[C@H](C)NC(=O)[C@H](Cc1c[nH]c2ccccc12)NC(=O)[C@H](CCC(N)=O)NC(=O)[C@@H](Cc1ccc(O)cc1)NC(=O)COCCOCCNC(=O)CN1CCN(CC(=O)O)CCN(CC(=O)O)CCN(CC(=O)O)CC1)C(C)C)C(N)=O [[^111In]PanSarbesin 1, metal not drawn] ({DOTA-AEEA}-[dY]QWAV[βAla]HF[Nle]-NH2)
Result: 13%
//
Compound: CC(C)C[C@H](NC(=O)CNC(=O)[C@H](Cc1ccccc1)NC(=O)[C@H](Cc1ccccc1)NC(=O)[C@H](CCC(N)=O)NC(=O)[C@H](CCC(N)=O)NC(=O)[C@@H]1CCCN1C(=O)[C@H](CCCCN)NC(=O)[C@@H]1CCCN1C(=O)[C@H](CCCNC(=N)N)NC(=O)CN1CCN(CC(=O)O)CCN(CC(=O)O)CCN(CC(=O)O)CC1)C(=O)N[C@@H](CCS(C)(=O)=O)C(N)=O [[111In]SP-2, metal not drawn]
Result: 24%
//
Compound: CCCC[C@H](NC(=O)[C@H](CO)NC(=O)[C@H](Cc1ccc(O)cc1)NC(=O)[C@H](CO)NC(=O)CN1CCN(CC(=O)O)CCN(CC(=O)O)CCN(CC(=O)O)CC1)C(=O)N[C@@H](CCC(=O)O)C(=O)N[C@@H](Cc1c[nH]cn1)C(=O)N[C@@H](Cc1ccccc1)C(=O)N[C@@H](CCCNC(=N)N)C(=O)N[C@@H](Cc1c[nH]c2ccccc12)C(=O)NCC(=O)N[C@@H](CCCCN)C(=O)N1CCC[C@H]1C(=O)N[C@H](C(N)=O)C(C)C [[111In]MSH-1, metal not drawn]
Result: 52%
//
Compound: CCCC[C@H](NC(=O)[C@H](CC(C)C)NC(=O)[C@H](Cc1c[nH]cn1)NC(=O)CNC(=O)[C@@H](NC(=O)[C@H](C)NC(=O)[C@H](Cc1c[nH]c2ccccc12)NC(=O)[C@H](CCC(N)=O)NC(=O)[C@H](CC(N)=O)NC(=O)CNC(=O)[C@H](Cc1ccc(O)cc1)NC(=O)[C@H](CCCN=C(N)N)NC(=O)[C@H](CCC(N)=O)NC(=O)[C@@H]1CCCN1C(=O)C(CNCCN)CNCCN)C(C)C)C(N)=O [[^99mTc]Demobesin 4, metal not drawn]
Result: 26%
//
Compound: CSCC[C@H](NC(=O)[C@H](Cc1c[nH]c2ccccc12)NC(=O)CNC(=O)[C@H](Cc1ccc(O)cc1)NC(=O)[C@H](C)NC(=O)[C@@H](CCC(=O)O)NC(=O)CN1CCN(CC(=O)O)CCN(CC(=O)O)CCN(CC(=O)O)CC1)C(=O)N[C@@H](CC(=O)O)C(=O)N[C@@H](Cc1ccccc1)C(N)=O [^111In-DOTA-MG11, [(^111In-DOTA)DGlu^10]Minigastrin(10-17), metal not drawn] ({DOTA}-[dE]AYGWMDF-NH2)
Result: < 5%
//
Compound: CCCC[C@H](NC=O)C(=O)N[C@@H](CC(C)C)C(=O)N[C@@H](Cc1ccccc1)C(=O)N[C@@H](CCCC)C(=O)N[C@@H](Cc1ccc(O)cc1)C(=O)N[C@@H](CCCCNC(=O)CN1CCN(CC(=O)O)CCN(CC(=O)O)CCN(CC(=O)O)CC1)C(=O)O [[111In] CTP-1, For-Nle-Leu-Phe-Nle-Tyr-Lys(DOTA)-OH, metal not drawn] (For-[Nle]LF[Nle]YK(DOTA)-OH)
Result: 2%
//
Compound: CSCC[C@H](NC(=O)[C@H](CC(C)C)NC(=O)CNC(=O)[C@H](Cc1ccccc1)NC(=O)[C@H](Cc1ccccc1)NC(=O)[C@H](CCC(N)=O)NC(=O)[C@H](CCC(N)=O)NC(=O)[C@@H]1CCCN1C(=O)[C@H](CCCCN)NC(=O)[C@@H]1CCCN1C(=O)[C@H](CCCNC(=N)N)NC(=O)CN1CCN(CC(=O)O)CCN(CC(=O)O)CCN(CC(=O)O)CC1)C(N)=O [[111In]SP-1, metal not drawn]
Result: 7%
//
Compound: CCCC[C@H](NC(=O)[C@H](CO)NC(=O)[C@H](Cc1ccc(O)cc1)NC(=O)[C@H](CO)NC(=O)CN1CCN(CC(=O)O)CCN(CC(=O)O)CCN(CC(=O)O)CC1)C(=O)N[C@@H](CCC(=O)O)C(=O)N[C@@H](Cc1cnc[nH]1)C(=O)N[C@H](Cc1ccccc1)C(=O)N[C@@H](CCCN=C(N)N)C(=O)N[C@@H](Cc1c[nH]c2ccccc12)C(=O)NCC(=O)N[C@@H](CCCCN)C(=O)N1CCC[C@H]1C(=O)N[C@H](C(N)=O)C(C)C [[111In]MSH-2, metal not drawn]
Result: 77%
//
Compound: CC(C)C[C@H](NC(=O)CN(C)C(=O)[C@H](Cc1ccccc1)NC(=O)[C@H](Cc1ccccc1)NC(=O)[C@H](CCC(N)=O)NC(=O)[C@H](CCC(N)=O)NC(=O)[C@@H]1CCCN1C(=O)[C@H](CCCCN)NC(=O)[C@@H]1CCCN1C(=O)[C@H](CCCNC(=N)N)NC(=O)CN1CCN(CC(=O)O)CCN(CC(=O)O)CCN(CC(=O)O)CC1)C(=O)N[C@@H](CCS(C)(=O)=O)C(N)=O [[111In]SP-3, metal not drawn]
Result: 51%
//
Compound: CC(C)C[C@H](NC(=O)[C@@H](NC(=O)[C@H](Cc1ccc(O)cc1)NC(=O)[C@@H]1CCCN1C(=O)[C@H](CCN)NC(=O)[C@H](CCCNC(=N)N)NC(=O)CCNC(=O)C(CNCCN)CNCCN)C(C)(C)C)C(=O)O [[^99mTc]Demotensin 6, metal not drawn] ({X1-βAla}-R[Dab]PY[Tle]L-OH)
Result: 52%
